Listing of entries alongside the reported IC50.
Target: recombinant full-length human prolyl endopeptidase (PREP) (Homo sapiens, UniProt P48147)
Construct: To recombinant full-length human prolyl endopeptidase (PREP, R&D-Systems, 4308-SE)
Sequence (P48147 1-710): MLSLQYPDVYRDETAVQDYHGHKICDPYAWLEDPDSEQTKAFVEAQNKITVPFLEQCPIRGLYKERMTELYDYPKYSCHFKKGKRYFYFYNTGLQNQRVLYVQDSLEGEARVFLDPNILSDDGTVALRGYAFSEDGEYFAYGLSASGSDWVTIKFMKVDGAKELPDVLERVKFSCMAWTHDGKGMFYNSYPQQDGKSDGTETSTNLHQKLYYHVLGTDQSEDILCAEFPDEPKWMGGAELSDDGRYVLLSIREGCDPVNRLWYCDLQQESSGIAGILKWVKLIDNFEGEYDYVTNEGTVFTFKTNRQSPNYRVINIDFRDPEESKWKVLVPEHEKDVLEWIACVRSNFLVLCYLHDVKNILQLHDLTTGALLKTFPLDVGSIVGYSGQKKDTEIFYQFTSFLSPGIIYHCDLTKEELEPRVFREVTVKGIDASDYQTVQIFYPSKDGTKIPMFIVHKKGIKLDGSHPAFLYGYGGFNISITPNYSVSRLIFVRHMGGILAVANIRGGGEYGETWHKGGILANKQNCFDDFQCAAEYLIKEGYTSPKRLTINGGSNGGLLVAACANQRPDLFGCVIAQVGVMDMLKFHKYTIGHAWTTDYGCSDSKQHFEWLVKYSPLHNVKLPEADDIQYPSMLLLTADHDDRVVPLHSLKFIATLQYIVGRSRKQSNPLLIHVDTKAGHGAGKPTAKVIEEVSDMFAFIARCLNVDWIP
Test: Biochemical human prolyl endopeptidase (PREP) assay with fluorescently labelled substrate
Settings: substrate Z-Gly-Pro-AMC 50 μM, 32° C., 60 min; some as mean values from multiple independent determinations
attributeMeasured: IC50 (nM)

* O=C([C@@H]1CCCc2nn(Cc3ncc(Cl)cc3Cl)c(=O)n21)N1CC(F)(F)C1 [Example 397] | 6.9
* CN(C)C(=O)c1ccc(Cn2nc3n(c2=O)C(C(=O)N2CCCC2)CCC3)cc1 (racemic) [Example 156] | 69
* O=C([C@@H]1CCCc2nn(Cc3cnc(C(F)(F)F)c(Cl)c3)c(=O)n21)N1C[C@@H](F)[C@@H](F)C1 [Example 440] | 0.715
* O=C([C@@H]1CCCc2nn(Cc3ncc(Cl)cc3Cl)c(=O)n21)N1C[C@@H](F)[C@@H](F)C1 [Example 400] | 0.455
* O=C([C@@H]1CCCc2nn(Cc3cc(C(F)(F)F)c(Cl)cn3)c(=O)n21)N1CC[C@H](F)C1 [Example 376] | 0.41
* O=C(C1CC(C(F)(F)F)Cc2nn(Cc3ccc(C(F)(F)F)nc3)c(=O)n21)N1CCC(F)(F)C1 (racemic) [Example 312] | 8.9
* O=C([C@@H]1CCCc2nn(Cc3ccc(F)cc3Cl)c(=O)n21)N1CC[C@H](F)C1 [Example 475] | 0.33
* O=C([C@@H]1CCCc2nn(Cc3ccc(Cl)nc3)c(=O)n21)N1CC(F)C1 [Example 421] | 0.91
* O=C([C@@H]1CCCc2nn(Cc3cncc(Cl)c3)c(=O)n21)N1CC(F)C1 [Example 436] | 4.7
* Cc1nc(Cn2nc3n(c2=O)C(C(=O)N2CCCC2)CCC3)no1 (racemic) [Example 12] | 99.5
* O=C([C@@H]1CCCc2nn(Cc3cccc(Cl)n3)c(=O)n21)N1CCC(F)(F)C1 [Example 383] | 8.55
* O=C([C@@H]1CCCc2nn(Cc3nccc(C(F)(F)F)c3Cl)c(=O)n21)N1CC[C@H](F)C1 [Example 392] | 0.46
* O=C(C1CCCc2nn(Cc3ccc(Cl)nc3)c(=O)n21)N1CCC(F)(F)C1 (racemic) [Example 80] | 16
* CC(c1ccc(C(F)(F)F)nc1)n1nc2n(c1=O)[C@H](C(=O)N1C[C@@H](F)[C@@H](F)C1)CCC2 (single isomer, unassigned) [Example 219] | 7.3
* O=C([C@@H]1CCCc2nn(Cc3ccc(C(F)(F)F)c(Cl)c3)c(=O)n21)N1C[C@@H](F)[C@@H](F)C1 [Example 458] | 0.51
* O=C([C@@H]1CCC(F)(F)c2nn(Cc3ccc(Cl)nc3)c(=O)n21)N1CCC(F)(F)C1 [Example 557] | 3.2
* COc1ccc(C2(Cn3nc4n(c3=O)[C@H](C(=O)N3CC(F)C3)CCC4)CC2)cc1 [Example 357] | 0.43
* O=C([C@@H]1CCCc2nn(Cc3cncc(Cl)c3)c(=O)n21)N1CC[C@H](F)C1 [Example 438] | 1.68
* O=C([C@@H]1CCCc2nn(Cc3nccc(C(F)(F)F)c3Cl)c(=O)n21)N1CCCC1 [Example 533] | 0.44
* O=C(C1CC(C(F)(F)F)Cc2nn(Cc3ccc(Cl)nc3)c(=O)n21)N1CCCC1 (single isomer, unassigned) [Example 227] | 24
* O=C([C@@H]1CCCc2nn(Cc3ccc(Br)cc3)c(=O)n21)N1C[C@@H](F)[C@@H](F)C1 [Example 210] | 0.27
* Cc1ccc(Cn2nc3n(c2=O)[C@H](C(=O)N2CC(C)C2)CCC3)cc1 [Example 192] | 0.32
* O=C(C1C(C(F)(F)F)CCc2nn(Cc3ncc(Cl)cc3F)c(=O)n21)N1CC(F)C1 (single isomer, unassigned) [Example 309] | 64
* Cc1ccc(C2(Cn3nc4n(c3=O)[C@H](C(=O)N3CC(F)C3)CCC4)CC2)cc1 [Example 355] | 1.3
* O=C([C@@H]1CC=Cc2nn(Cc3ccc(C(F)(F)F)nc3)c(=O)n21)N1CC[C@H](F)C1 [Example 276] | 3.6
